// data source = ChEMBL document CHEMBL4177763

- Assayed System: Melanocyte-stimulating hormone receptor (Homo sapiens)
- Assay Explanation: Displacement of [125I]-NDP-alpha-MSH from human MC1R expressed in HEK293 cells after 40 mins by gamma counting method
Bridge positions count the residues as written; N and C are the ends. Square brackets hold non-standard residues; d marks the D form. Peptide text beside a SMILES is read from it. Ac5c = NC1(C(=O)O)CCCC1; Ac4c = NC1(C(=O)O)CCC1
Property Label: pIC50
Numbers only, as −log10 of the molar value.

• N=C(N)NCCC[C@@H]1NC(=O)[C@@H](Cc2ccccc2)NC(=O)[C@H](Cc2c[nH]cn2)NC(=O)C2(CCCC2)NC(=O)CC[C@@H](C(N)=O)NC(=O)[C@H](Cc2c[nH]c3ccccc23)NC1=O ([Ac5c]H[dF]RWE-NH2; lactam N-6) = 7.03
• N=C(N)NCCC[C@@H]1NC(=O)[C@@H](Cc2ccccc2)NC(=O)[C@H](Cc2c[nH]cn2)NC(=O)C2(CCC2)NC(=O)CC[C@@H](C(N)=O)NC(=O)[C@H](Cc2c[nH]c3ccccc23)NC1=O ([Ac4c]H[dF]RWE-NH2; lactam N-6) = 7.26

// moving on: another record for pIC50
[ask] Fill in pIC50 for record N=C(N)NCCC[C@@H]1NC(=O)[C@@H](Cc2ccccc2)NC(=O)[C@H](Cc2c[nH]cn2)NC(=O)C2(CCCCC2)NC(=O)CC[C@@H](C(N)=O)NC(=O)[C@H](Cc2c[nH]c3ccccc23)NC1=O
[reply] 7.00

====

Provide the reported EC50 of each item.
- Assayed System: Melanocyte-stimulating hormone receptor (Homo sapiens, UniProt Q01726)
- Sequence (Q01726 whole entry): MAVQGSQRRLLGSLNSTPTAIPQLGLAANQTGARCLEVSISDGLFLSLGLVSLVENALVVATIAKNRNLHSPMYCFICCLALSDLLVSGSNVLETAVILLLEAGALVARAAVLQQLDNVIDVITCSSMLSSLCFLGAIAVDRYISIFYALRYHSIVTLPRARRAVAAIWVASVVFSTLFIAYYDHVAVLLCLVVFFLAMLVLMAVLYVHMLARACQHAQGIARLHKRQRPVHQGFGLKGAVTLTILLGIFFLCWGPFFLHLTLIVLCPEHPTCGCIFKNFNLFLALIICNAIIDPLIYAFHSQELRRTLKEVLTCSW
- Assay Explanation: Agonist activity at human MC1R expressed in HEK293 cells assessed as induction of intracellular cAMP accumulation measured after 3 mins
Bridge positions count the residues as written; N and C are the ends. Square brackets hold non-standard residues; d marks the D form. Peptide text beside a SMILES is read from it. d2Nal = N[C@H](Cc1ccc2ccccc2c1)C(=O)O; Ac5c = NC1(C(=O)O)CCCC1; Aib = CC(C)(N)C(=O)O
Give bare numbers, in nM.

- N=C(N)NCCC[C@@H]1NC(=O)[C@@H](Cc2ccc3ccccc3c2)NC(=O)[C@H](Cc2c[nH]cn2)NC(=O)C2(CCCC2)NC(=O)CC[C@@H](C(N)=O)NC(=O)[C@H](Cc2c[nH]c3ccccc23)NC1=O ([Ac5c]H[d2Nal]RWE-NH2; lactam N-6): 108

// moving on: another record for EC50
[ask] Tell me measured EC50 for CC1(C)NC(=O)C[C@@H](C(N)=O)NC(=O)[C@H](Cc2c[nH]c3ccccc23)NC(=O)[C@H](CCCNC(=N)N)NC(=O)[C@@H](Cc2ccc3ccccc3c2)NC(=O)[C@H](Cc2c[nH]cn2)NC1=O ([Aib]H[d2Nal]RWD-NH2; lactam N-6) please.
[reply] 67

====

- Assayed System: Melanocyte-stimulating hormone receptor (Homo sapiens, UniProt Q01726)
- Assay Explanation: Displacement of [125I]-NDP-alpha-MSH from human MC1R expressed in HEK293 cells after 40 mins by gamma counting method
Bridge positions count the residues as written; N and C are the ends. Square brackets hold non-standard residues; d marks the D form. Peptide text beside a SMILES is read from it. d2Nal = N[C@H](Cc1ccc2ccccc2c1)C(=O)O; Ac5c = NC1(C(=O)O)CCCC1; Aib = CC(C)(N)C(=O)O
Property Label: IC50
Please answer using a numeric value trailed by its unit.

* N=C(N)NCCC[C@@H]1NC(=O)[C@@H](Cc2ccc3ccccc3c2)NC(=O)[C@H](Cc2c[nH]cn2)NC(=O)C2(CCC2)NC(=O)C[C@@H](C(N)=O)NC(=O)[C@H](Cc2c[nH]c3ccccc23)NC1=O | 112 nM
* N=C(N)NCCC[C@@H]1NC(=O)[C@@H](Cc2ccc3ccccc3c2)NC(=O)[C@H](Cc2c[nH]cn2)NC(=O)C2(CCCC2)NC(=O)CC[C@@H](C(N)=O)NC(=O)[C@H](Cc2c[nH]c3ccccc23)NC1=O ([Ac5c]H[d2Nal]RWE-NH2; lactam N-6) | 43 nM
* CC1(C)NC(=O)C[C@@H](C(N)=O)NC(=O)[C@H](Cc2c[nH]c3ccccc23)NC(=O)[C@H](CCCNC(=N)N)NC(=O)[C@@H](Cc2ccc3ccccc3c2)NC(=O)[C@H](Cc2c[nH]cn2)NC1=O ([Aib]H[d2Nal]RWD-NH2; lactam N-6) | 180 nM

[ask] Write down IC50 measured for item N=C(N)NCCC[C@@H]1NC(=O)[C@@H](Cc2ccc3ccccc3c2)NC(=O)[C@H](Cc2c[nH]cn2)NC(=O)C2(CCCC2)NC(=O)C[C@@H](C(N)=O)NC(=O)[C@H](Cc2c[nH]c3ccccc23)NC1=O
[reply] 290 nM
